Could you please report measured inhibition for the items listed next?
Assay: Mycobacterium tuberculosis growth inhibition, primary screen (AID 1259343)
Settings: at 10 µM, hits give high values
About 2,900 (47%) of roughly 6,200 compounds were called active. The set was probably picked from earlier hits. Some of the results follow.
Write down the numeric answer in % and omit the unit.

response.value for COC(F)(C(=O)Nc1ccc(C)c(Br)c1)C(F)(F)F (stereo not drawn) (field: inhibition) = 56.7

// field: inhibition; key: "O=C(Cc1coc(-c2ccccc2)n1)NC1CCCC1" ; value = 21.1

So, "CNC(=O)COc1ccc(Oc2ccc(C)cc2)cc1" ? Its inhibition was 25.8

Sample CCCC(C)NC(=O)c1cc(Cl)c[nH]1 (stereo not drawn) ; inhibition observed: 10.3

Short answer for "COc1ccc(/C=C/C(=O)NNC(=O)COc2ccc(C)cc2)cc1" : inhibition was 95.6

Entry "COc1ccc(/C=C/c2nc3cc(C)ccc3s2)cc1O" , inhibition reported as 23.6

Entry "COc1ccc(NC(=O)c2ccc(=O)n(C)c2)cc1Br" ; inhibition = 2.47

inhibition in this record for "CC(=O)Nc1ccc(OC/C=C/c2ccccc2)cc1" : 87.3

----------
Experiment: Mycobacterium tuberculosis growth inhibition, primary screen (AID 1259343)
Details: at 10 µM, hits give high values
About 2,900 (47%) of roughly 6,200 compounds were called active. The set was probably picked from earlier hits. The list shows a part of the results.
readoutLabel: inhibition (%)
Number in %, nothing else.

Input CC(CC(=O)Nc1ccccc1-c1nn[nH]n1)CC(C)(C)C (centres undefined) . Output inhibition: -15.1

Lab book: inhibition of "N#CC(=Cc1ccccc1I)c1nc(-c2ccccc2)cs1" noted as 10.6

Input OC(c1ccc(Cl)c(Cl)c1)c1ncc(-c2cccc(F)c2)[nH]1 (centres undefined) . Output inhibition: 23.7

The reported value for "CCc1cc(=O)[nH]c(-n2nc(C)cc2NC(=O)C2CC2)n1" in terms of inhibition is 101

inhibition reported for this molecule "CN(C)c1c(Cl)cccc1NC(=O)c1cc(C2CC2)[nH]n1" : 19.5

For record "CCCCc1ccc(NC(=O)/C=C/c2cnn(C)c2C)cc1" the listed inhibition is 93.3

Kindly note the recorded inhibition for "O=C(Nc1ccc(Cl)c(Cl)c1)Nc1cc(C(F)(F)F)c[nH]c1=O" , which is 9.25

Reported inhibition of "CCCc1cc(=O)[nH]c(-n2nc(C)cc2NC(=O)C2CC2)n1" : 101

// field: inhibition; key: "O=C(Nc1ccc(C(F)(F)F)cc1Cl)c1cc([N+](=O)[O-])[nH]n1" ; value = 102

----------
Assay: Mycobacterium tuberculosis growth inhibition, primary screen (AID 1259343)
Conditions: at 10 µM, hits give high values
In all, about 6,200 compounds went through this assay and about 2,900 (47%) were called active. The set was probably picked from earlier hits. The list shows a part of the results.
Outcome: fulfilled for inhibition of at least 60%; not fulfilled for anything lower.

stdin: # bool: inhibition of CC(OC(=O)c1ccco1)C(=O)Nc1ccc(OC(F)F)c(Cl)c1 (stereo unspecified) >= 60%
stdout: not fulfilled

stdin: hey, is inhibition for this one >= 60%? "CC(C)OC(=O)c1ccc(NC(=O)CCCC(=O)O)cc1"
stdout: not fulfilled

stdin: API: above_or_equal(metric=inhibition, cutoff=60%) for item "Cc1csc(NC(=O)c2ccc(COc3cccc4c3OC(C)(C)C4)cc2)n1"
stdout: fulfilled

stdin: Check the entry Cc1ccc(S(=O)(=O)NCC2COc3ccccc3C2)cc1F (stereo unspecified) : does inhibition equal or exceed 60%?
stdout: not fulfilled

stdin: Could you tell me if the measured inhibition of "Cc1cc(C(=O)Nc2ccc(OC(F)F)c(Cl)c2)on1" reaches 60% or more?
stdout: fulfilled

stdin: State whether the measured inhibition reaches 60%, counting equality as reaching it, for CN(CCNC(=O)C1(C)CC1(Cl)Cl)C1CC1 (stereo unspecified)
stdout: not fulfilled

stdin: Entry "FC(F)Oc1ccc(NC(=S)Nc2cccnc2)cc1Cl" : is its inhibition no less than 60%?
stdout: fulfilled

stdin: Kindly determine if inhibition recorded for "CC(C)N(C(=O)c1ccc(-c2cccc(C(F)(F)F)c2)s1)C(C)C" is above or exactly 60%.
stdout: fulfilled

stdin: Hello, I need to know if CC1CCCCC1NC(=O)Cn1ccc(C(F)(F)F)n1 (stereo unspecified) has measured inhibition not below 60%. Thanks!
stdout: fulfilled

stdin: inhibition >= 60% for "C#CCN(C)C(=O)c1ccc(-c2cccc(C(F)(F)F)c2)s1" ?
stdout: not fulfilled

stdin: Given the entry CC(C(N)=O)N1CCC(c2nc3cc(Cl)ccc3s2)CC1 (stereo unspecified) , answer whether its inhibition meets or surpasses 60%.
stdout: not fulfilled

stdin: Hello, I need to know if "O=C(CCl)Nc1ccc(OC(F)F)c(Cl)c1" has measured inhibition not below 60%. Thanks!
stdout: fulfilled

stdin: Determine whether measured inhibition meets or exceeds 60% for COc1ccc(NC(=O)c2ccc3c(c2)NC(=O)C(C)S3)cc1 (stereo unspecified)
stdout: not fulfilled

stdin: Hi, just wondering whether COc1ccc(-c2csc(C(C#N)C(=O)CC3C=CCC3)n2)cc1 (stereo unspecified) shows inhibition of 60% or higher.
stdout: fulfilled

stdin: Quick check, inhibition >= 60%? "O=S(=O)(NCc1ccc(F)cc1)c1ccc2c(c1)CCCC2"
stdout: fulfilled

stdin: Form field: inhibition at least 60%? Entry: "Cc1nc(CNc2ccc3c(c2)CCN3C(=O)OC(C)(C)C)cs1"
stdout: not fulfilled

stdin: Is inhibition for "CCS(=O)(=O)c1ccc(-c2cccc(NS(=O)(=O)c3ccc(C)cc3C)c2)nn1" at or above 60%?
stdout: fulfilled

stdin: API: above_or_equal(metric=inhibition, cutoff=60%) for item "CC(C)c1nc(CS(=O)(=O)c2nc3cc(Cl)ccc3s2)no1"
stdout: fulfilled

stdin: inhibition >= 60% for "O=C(c1cc(Br)c[nH]1)N1CCC(Nc2ccc(F)cc2)CC1" ?
stdout: not fulfilled

stdin: inhibition >= 60% for "Cc1cccc(N/C=c2\c(C)c(C#N)c3nc4ccccc4n3c2=O)c1" ?
stdout: not fulfilled

stdin: Dear colleague, could you confirm whether CC1CCc2c(nc3sc4c(c3c2N)CCCC4)C1 (stereo unspecified) has inhibition at or above 60%?
stdout: not fulfilled

stdin: Could you please find out whether "Cc1ccc(CSc2nc(CC(=O)NCCC(C)C)cs2)cc1" has inhibition that meets 60% or exceeds it?
stdout: not fulfilled

stdin: Can CC1(Oc2ccccc2-c2ccno2)CCN(Cc2ccc(-c3ccccc3)o2)C1 (stereo unspecified) be said to have inhibition at or above 60%?
stdout: not fulfilled

stdin: Would you say "COc1ccc(Cl)c2sc(N(CCCN(C)C)C(=O)Cc3ccccc3)nc12" shows inhibition at minimum 60%?
stdout: fulfilled

stdin: Has COCc1ccc(C(=O)N2CCCC(Nc3ccc(C(C)C)cc3)C2)s1 (stereo unspecified) a recorded inhibition greater than or equal to 60%?
stdout: not fulfilled

stdin: Please tell me: is the molecule "N#CC(=Cc1ccc(O)cc1)c1ccc([N+](=O)[O-])cc1" at or over 60% in terms of inhibition?
stdout: not fulfilled

----------
Assay: Mycobacterium tuberculosis growth inhibition, primary screen (AID 1259343)
Conditions: at 10 µM, hits give high values
Out of some 6,200 compounds screened, about 2,900 (47%) were called active. The set was probably picked from earlier hits. This is one part of the list.
# cutoff 20% applies to inhibition; >= gives condition met, < gives condition not met

stdin: Please indicate if the recorded inhibition for "O=C(NCCC1=CCCCC1)c1c(O)nc2sccn2c1=O" meets or exceeds 20%.
stdout: condition met

stdin: Reported inhibition at or above 20%? "Cc1ccc(-c2nc(CN3CCc4ccccc4C3)co2)c(C)c1"
stdout: condition met

stdin: Assess whether reported inhibition for "O=C(NN=Cc1ccccc1O)c1cc(C23CC4CC(CC(C4)C2)C3)[nH]n1" sits at 20% or higher.
stdout: condition met

stdin: Please tell me: is the compound "N#Cc1cccc(CSc2n[nH]c(=O)n2C2CC2)c1" at or over 20% in terms of inhibition?
stdout: condition not met

stdin: Given the entry "O=C(NN=Cc1ccc(F)cc1)c1cc(C23CC4CC(CC(C4)C2)C3)[nH]n1" , answer whether its inhibition meets or surpasses 20%.
stdout: condition not met

stdin: # bool: inhibition of "CCN(C(=O)c1cc(C)c(-c2ccc(F)cc2)s1)C1CCC1" >= 20%
stdout: condition met

stdin: API: above_or_equal(metric=inhibition, cutoff=20%) for item "CC(C)CNC(=O)c1c(O)nc2sccn2c1=O"
stdout: condition met

stdin: Does inhibition meet or surpass 20% for "O=C(Nc1nnc(C2CC2)s1)N1CCC(Cc2cccc(F)c2)CC1" ?
stdout: condition not met

stdin: Item "O=C(NCc1ccccn1)Nc1cc(F)c(N2CCCC2)c(F)c1" with inhibition of 20% or above?
stdout: condition met

----------
Assay: Mycobacterium tuberculosis growth inhibition, primary screen (AID 1259343)
Conditions: at 10 µM
The whole screen tested about 6,200 compounds, of which about 2,900 (47%) were called active. No stated cut-off is given here; in the data, active means inhibition above about 50%; inactive means the rest. So high a share suggests a set chosen from earlier hits. The list shows a part of the results.
Your answer must be one of the following: true for active, false for inactive

stdin: What was the test verdict on CC(NC(=O)c1ccc(Cl)o1)c1ccc(C(F)(F)F)cc1 (stereo not drawn) ?
stdout: true

stdin: Please let me know the test result on file for "O=C(NCc1ccccc1)c1ccc(C(F)(F)F)cc1" .
stdout: false

stdin: GET /call?item= "Cc1nc(COc2ccc(C(=O)NCc3ccc(F)cc3)cc2)cs1" returns the recorded outcome of this test.
stdout: false

stdin: Entry CC(NC(=O)c1cccs1)c1ccc(C(F)(F)F)cc1 (stereo not drawn) : call = ?
stdout: true

stdin: Which outcome did this test record for the compound "O=C(O)c1ccccc1-c1c2cc(Br)c(=O)cc-2oc2[c]([Hg])c(O)c(Br)cc12" ?
stdout: true

stdin: Recorded test call requested for "COc1ccc(CCNc2ncnc3[nH]ncc23)cc1"
stdout: false

stdin: Tell me the assay call for CC(NC(=O)CC1C=CCC1)c1ccc(C(F)(F)F)cc1 (stereo not drawn) please.
stdout: false

stdin: Dear colleague, could you share the recorded outcome for "Cc1c(C(=O)NCc2ccc(Cl)c(Cl)c2)sc(=O)n1Cc1ccc(F)cc1" when you have a moment?
stdout: false
